# TEST DETAILS: in vitro
# CONDITION NOTES: mouse, NIH3T3 cells versus FaDu cells
# Description: Selectivity index, ratio of IC50 for mouse NIH3T3 cells to IC50 for human FaDu cells incubated for 72 hrs by SRB assay
Please go through the items and note down their selectivity ratio at 72 h.
Form: value (number only, do not type unit).

Documented selectivity ratio at 72 h of CCN(CC)c1ccc2c(-c3ccccc3C(=O)OCC(=O)[C@@]3(O)CC[C@H]4[C@@H]5CCC6=CC(=O)C=C[C@@]6(C)[C@H]5C(=O)C[C@@]43C)c3ccc(=[N+](CC)CC)cc-3oc2c1.[Cl-] : 4.1

Recorded result, CCN(CC)c1ccc2c(-c3ccccc3C(=O)O[C@H]3CC[C@@]4(C)C(=CC[C@@H]5[C@@H]4CC[C@]4(C)C(c6cccnc6)=CC[C@@H]54)C3)c3ccc(=[N+](CC)CC)cc-3oc2c1 , selectivity ratio at 72 h: 1.8

Consider C=C(c1ccc(C(=O)O)cc1)c1cc2c(cc1C)C(C)(C)CCC2(C)C . Its measured selectivity ratio at 72 h is 0.6

The value of selectivity ratio at 72 h measured for the molecule CCN(CC)c1ccc2c(-c3ccccc3C(=O)O[C@H]3CC[C@H]4[C@@H]5CCC6=CC(=O)CC[C@]6(C)[C@H]5CC[C@]34C)c3ccc(=[N+](CC)CC)cc-3oc2c1.[Cl-] turned out to be 1
